// provenance: ChEMBL document CHEMBL3992508

MIC values for the molecules below.
# Tested on: Candida albicans
# ASSAY_PROCEDURE: Antifungal activity against azole-resistant Candida albicans ATCC 64124
# Format: functional
READOUT_TYPE: MIC

>>> endpoint_value("C[n+]1nn(CCCCCCn2n[n+](C)c3c2C(=O)c2ccccc2C3=O)c2c1C(=O)c1ccccc1C2=O.O=S(=O)([O-])C(F)(F)F.O=S(=O)([O-])C(F)(F)F")
"> 250 µg/mL"
>>> endpoint_value("CC[n+]1nn(CCCCCCn2n[n+](CC)c3c2C(=O)c2ccccc2C3=O)c2c1C(=O)c1ccccc1C2=O.O=S(=O)([O-])C(F)(F)F.O=S(=O)([O-])C(F)(F)F")
"> 250 µg/mL"
>>> endpoint_value("CCCCCC[n+]1nn(CCCCCCn2n[n+](CCCCCC)c3c2C(=O)c2ccccc2C3=O)c2c1C(=O)c1ccccc1C2=O.O=S(=O)([O-])C(F)(F)F.O=S(=O)([O-])C(F)(F)F")
"250 µg/mL"

---

# Test system: SK-OV-3
# ASSAY_PROCEDURE: Cytotoxicity against human SKOV3 cells at 10 ug/ml after 48 hrs by MTT assay
# Type: cell-based
# MEASUREMENT_CONDITIONS: sk-ov-3, 48 h
READOUT_TYPE: Activity

>>> endpoint_value("C[n+]1nn(CCCCCCn2n[n+](C)c3c2C(=O)c2ccccc2C3=O)c2c1C(=O)c1ccccc1C2=O.O=S(=O)([O-])C(F)(F)F.O=S(=O)([O-])C(F)(F)F")
"Toxic"
>>> endpoint_value("CCCCCC[n+]1nn(CCCCCCn2n[n+](CCCCCC)c3c2C(=O)c2ccccc2C3=O)c2c1C(=O)c1ccccc1C2=O.O=S(=O)([O-])C(F)(F)F.O=S(=O)([O-])C(F)(F)F")
"Non-Toxic"
>>> endpoint_value("CCCCCCCC[n+]1nn(CCCCCCn2n[n+](CCCCCCCC)c3c2C(=O)c2ccccc2C3=O)c2c1C(=O)c1ccccc1C2=O.O=S(=O)([O-])C(F)(F)F.O=S(=O)([O-])C(F)(F)F")
"Non-Toxic"
>>> endpoint_value("CCCC[n+]1nn(CCCCCCn2n[n+](CCCC)c3c2C(=O)c2ccccc2C3=O)c2c1C(=O)c1ccccc1C2=O.O=S(=O)([O-])C(F)(F)F.O=S(=O)([O-])C(F)(F)F")
"Non-Toxic"
>>> endpoint_value("CCCCCCCCCC[n+]1nn(CCCCCCn2n[n+](CCCCCCCCCC)c3c2C(=O)c2ccccc2C3=O)c2c1C(=O)c1ccccc1C2=O.O=S(=O)([O-])C(F)(F)F.O=S(=O)([O-])C(F)(F)F")
"Non-Toxic"

---

# Test system: Candida albicans
# ASSAY_PROCEDURE: Antifungal activity against azole-resistant Candida albicans ATCC 64124
# Type: functional
READOUT_TYPE: MIC (µg/mL)

>>> endpoint_value("CCCCCCCC[n+]1nn(CCCCCCn2n[n+](CCCCCCCC)c3c2C(=O)c2ccccc2C3=O)c2c1C(=O)c1ccccc1C2=O.O=S(=O)([O-])C(F)(F)F.O=S(=O)([O-])C(F)(F)F")
3.91
>>> endpoint_value("CCCCCCCCCC[n+]1nn(CCCCCCn2n[n+](CCCCCCCCCC)c3c2C(=O)c2ccccc2C3=O)c2c1C(=O)c1ccccc1C2=O.O=S(=O)([O-])C(F)(F)F.O=S(=O)([O-])C(F)(F)F")
3.91
>>> endpoint_value("CCCCCCCCS(=O)(=O)OC[C@H]1O[C@H](O[C@@H]2[C@@H](O)[C@H](O[C@H]3O[C@H](CN)[C@@H](O)[C@H](O)[C@H]3O)[C@@H](N)C[C@H]2N)[C@H](O)[C@@H](N)[C@@H]1O.Cl.Cl.Cl.Cl")
31.3
>>> endpoint_value("CCCC[n+]1nn(CCCCCCn2n[n+](CCCC)c3c2C(=O)c2ccccc2C3=O)c2c1C(=O)c1ccccc1C2=O.O=S(=O)([O-])C(F)(F)F.O=S(=O)([O-])C(F)(F)F")
250
